Assay: Pharmacokinetics of selexipag and ACT-333679 after oral and i.v. selexipag in subjects with stable PAH (Phase 3 switch study)
Type: in vivo, human
Conditions: human; Period 1 (oral selexipag), plasma, steady state; read-out: AUCτ, ss Geom. Mean
REPORTED_PROPERTY: AUC (ng·h/mL)
Report as a plain number; the unit ng·h/mL is understood.

COMPOUND | AUC [ng·h/mL]
CC(C)N(CCCCOCC(=O)NS(C)(=O)=O)c1cnc(-c2ccccc2)c(-c2ccccc2)n1 [selexipag] | 8.7

API: the following record is the query input.
Asked: Which AUC value belongs to CC(C)N(CCCCOCC(=O)O)c1cnc(-c2ccccc2)c(-c2ccccc2)n1 [ACT-333679] ?
Given back: 19.3

###

Assay: Pharmacokinetics of selexipag and ACT-333679 after oral and i.v. selexipag in subjects with stable PAH (Phase 3 switch study)
Format: in vivo, human
Details: human, iv; Period 2 (i.v. selexipag), plasma, steady state; read-out: AUCτ, ss Geom. Mean
The reader will find reported AUC values listed item by item below.
Report as a plain number; the unit ng·h/mL is understood.

SMILES_RECORD | AUC / ng·h/mL
CC(C)N(CCCCOCC(=O)NS(C)(=O)=O)c1cnc(-c2ccccc2)c(-c2ccccc2)n1 | 18.8

API: the following record is the query input.
Asked: Which AUC value belongs to CC(C)N(CCCCOCC(=O)O)c1cnc(-c2ccccc2)c(-c2ccccc2)n1 ?
Given back: 15.9
